Measured Target: Nociceptin receptor (Homo sapiens, UniProt P41146)
Sequence (P41146 whole entry): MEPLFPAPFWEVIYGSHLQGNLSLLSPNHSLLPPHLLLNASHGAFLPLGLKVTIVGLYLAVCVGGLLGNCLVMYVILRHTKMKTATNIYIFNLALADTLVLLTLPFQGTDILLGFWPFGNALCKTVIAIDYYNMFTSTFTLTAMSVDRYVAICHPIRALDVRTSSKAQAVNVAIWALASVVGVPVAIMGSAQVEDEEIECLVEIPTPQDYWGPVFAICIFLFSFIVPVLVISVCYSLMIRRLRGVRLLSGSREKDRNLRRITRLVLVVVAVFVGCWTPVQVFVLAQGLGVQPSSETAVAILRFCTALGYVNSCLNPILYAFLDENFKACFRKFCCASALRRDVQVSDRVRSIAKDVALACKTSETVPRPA
Assay Notes: Ability to displace [3H]nociceptin ( 0.5 nM ) binding from Opioid receptor like 1 expressed in HeLa cells.
Type: cell-based
Definition: the class of an entry is the range in low interval = under 3 nM, middle interval = from 3 nM up to 40 nM, high interval = 40 nM and over that contains its Ki.

Form field 'band' for Cc1cc(N)c2cc(NC(=O)c3ccccc3COc3ccc(O)cc3)ccc2n1
high interval

Form field 'band' for Cc1ccc(CCc2ccccc2C(=O)Nc2ccc3nc(C)cc(N)c3c2)cc1
high interval

Form field 'band' for CCc1ccc(OCc2ccccc2C(=O)Nc2ccc3nc(C)cc(N)c3c2)cc1
middle interval

Form field 'band' for Cc1cc(N)c2cc(NC(=O)c3ccccc3-c3ccccc3)ccc2n1
high interval

Form field 'band' for Cc1cc(N)c2cc(NC(=O)c3ccccc3COc3cccc(Cl)c3)ccc2n1
middle interval

Form field 'band' for Cc1cc(N)c2cc(NC(=O)c3ccccc3COc3ccc(Cl)cc3)ccc2n1
low interval

Form field 'band' for Cc1cc2ccc(NC(=O)c3ccccc3COc3ccc(Cl)cc3)cc2c(N)n1
middle interval

Form field 'band' for CCCc1cc(N)c2cc(NC(=O)c3ccccc3COc3ccc(Cl)cc3)ccc2n1
low interval

Form field 'band' for Cc1cc(N)c2cc(NC(=O)c3ccccc3COc3ccc(Br)cc3)ccc2n1
low interval

Form field 'band' for Cc1cc(N)c2cc(NC(=O)c3ccccc3COc3ccc(C(F)(F)F)cc3)ccc2n1
low interval

###

Please respond with reported pKi for every item in the list.
Measured Target: UniProtKB P41146
Assay Notes: Compound was evaluated for its ability to displace [3H]nociceptin ( 0.5 nM ) binding from Opioid receptor like 1 expressed in HeLa cells
Format: cell-based
Lab note: report pKi as minus log10 of the concentration in molar units, number only.

Endpoint output: pKi of Cc1cc(N)c2cc(NC(=O)c3ccccc3COc3ccccc3)ccc2n1 . Value?
7.29

Endpoint output: pKi of Cc1cc(N)c2cc(NC(=O)c3ccccc3CCc3ccccc3)ccc2n1 . Value?
7.10

###

Measured Target: Delta-type opioid receptor (Homo sapiens, UniProt P41143)
Sequence (P41143 whole entry): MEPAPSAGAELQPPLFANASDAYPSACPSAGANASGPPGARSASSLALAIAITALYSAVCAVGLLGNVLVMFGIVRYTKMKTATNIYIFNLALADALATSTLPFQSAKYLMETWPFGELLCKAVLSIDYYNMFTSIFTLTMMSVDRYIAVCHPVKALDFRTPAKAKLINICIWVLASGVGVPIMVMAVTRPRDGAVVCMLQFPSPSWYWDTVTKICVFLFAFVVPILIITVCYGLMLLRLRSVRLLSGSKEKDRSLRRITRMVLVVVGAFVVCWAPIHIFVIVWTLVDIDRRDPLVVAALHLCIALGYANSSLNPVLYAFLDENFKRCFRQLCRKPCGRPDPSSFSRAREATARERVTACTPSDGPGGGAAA
Assay Notes: Inhibition of [3H]naltrindole (0.55 nM) binding from human Opioid receptor delta 1 expressed in CHO-K1 cells.
Assay type: cell-based
Parameter: Ki (µM)
Expressed in µM, but write only the number.

Delta-type opioid receptor (Homo sapiens, UniProt P41143) / Ki / CCc1ccc(OCc2ccccc2C(=O)Nc2ccc3nc(C)cc(N)c3c2)cc1 : value?
8.65

###

Measured Target: UniProt P41146
Assay Notes: Percent inhibition of [3H]nociceptin ( 0.5 nM ) binding at 10 uM
Label rule, in plain words: inhibition of 50% and up is yes, under 50% is no.

I'd appreciate it if you could say whether Cc1cc(N)c2cc(NC(=O)c3ccccc3COc3ccccc3)ccc2n1 has inhibition at least equal to 50%.
yes

I'd appreciate it if you could say whether Cc1cc(N)c2cc(NC(=O)c3ccccc3CCc3ccccc3)ccc2n1 has inhibition at least equal to 50%.
yes

I'd appreciate it if you could say whether Cc1cc(N)c2cc(NC(=O)c3ccccc3-c3ccccc3)ccc2n1 has inhibition at least equal to 50%.
yes

I'd appreciate it if you could say whether Cc1cc(N)c2cc(NC(=O)c3ccccc3Cc3ccccc3)ccc2n1 has inhibition at least equal to 50%.
no

I'd appreciate it if you could say whether Cc1cc(N)c2cc(NC(=O)c3cccc(CCc4ccccc4)c3)ccc2n1 has inhibition at least equal to 50%.
no

I'd appreciate it if you could say whether Cc1cc(N)c2cc(NC(=O)c3ccc(CCc4ccccc4)cc3)ccc2n1 has inhibition at least equal to 50%.
no

I'd appreciate it if you could say whether Cc1cc(N)c2cc(NC(=O)c3ccccc3)ccc2n1 has inhibition at least equal to 50%.
no

I'd appreciate it if you could say whether Cc1cc(N)c2cc(NC(=O)c3ccccc3CCCc3ccccc3)ccc2n1 has inhibition at least equal to 50%.
yes
